# tgt: Biotinylated CoV2 Spike ECD PreS-AVI protein (SARS-CoV-2, UniProt P0DTC2 14-1208)
# experimental_protocol: Octet binning; competitor 9B2
Overview of recorded binning response for various binders
test_readout: binning response

INSERT INTO results (binder, value) VALUES
  ('1A11 VHH-Fc (Fc fusion) QVQLVESGGGLVQAGGSLRLSCEVSGSIYSINSMGWYRQAPGKQRELVAGIVSDGRINYADSVKGRFTISRAKNTVYLQMNSLKPEDTAVYYCAADRAFVYAGDYDYLGQGTQVTVSS', 0.13),
  ('1E4 VHH-Fc (Fc fusion) QVLLVESGGGLVQAGGLLRLACSASGRTFTENVMGWFRQAPGKEREFVAAINWNTGSTYYSDSRKGRFTISKDNAKNTMFLQINNLKPEDTAVYYCGGTSSSYYYIGEFIPDYWGQGTQVTVSS', 0.11),
  ('10B8 VHH-Fc (Fc fusion) QVQLVESGGGLVQPGGSLRLSCAASGITLDYYAIAWFRQAPGKEREGVSCFCSSDGDIRYADSVKGRFTISRDNAKNTVYLQMNSLKPEDTAVYYCATERVYSSTWFFHRYSELDFGSWGRGTQVTVSS', 0.12),
  ('9B2 VHH-Fc (Fc fusion) QVQLVESGGGLVQPGGSLRLSCAASGFTLDNYAIGWFRQAPGKEREGVSCISSSDGDTQYADSVKGRFTISRDNAKNTVYLQMNSLKPEDTAVYYCAVEKVYARSWFFHLCSELDFGSWGQGTQVTVSS', 0.1),
  ('11F8 VHH-Fc (Fc fusion) QVQLVESGGGLVQAGGSLRLSCAASGRTVGYYAVGWFRQAPGKERDFVAAISWSGRNTNYADSVTGRFTIFRDNAKNTVDLQMNSLKPEDTAVYYCAADYWNYGSGSEVPNNYDTWGQGTQVTVSS', 0.13),
  ('19E10 VHH-Fc (Fc fusion) QVQLVESGGGLVQPGGSLRLSCVASGSTISINSMGWYRQAPGKAREMVATITNDGPIKYADPVKGRFTISRDNPKNTVYLQMNSLKPEDTAVYYCVADRAYWLAGEWEYWGQGTQVTVSS', 0.11),
  ('13C8 VHH-Fc (Fc fusion) QVQLVESGGGLVQAGGSLRLSCAASGRTVNKYMTGWFRQTPGKEREFVASIDWSSTTTHYANSVKGRFTISRDKVKNTVYLQMNGLKPEDTAVYYCAAHQDSSYGYTILPIDYDSWGQGTQVTVSS', 0.11),
  ('7A9 VHH-Fc (Fc fusion) QVQLVESGGGLVQAGGSLRLSCSASGGTASRSAMGWFRQAPGKEREFVAGISRRNSGSTYVADSYEDSVKGRFTISRDNAKNTIYLQMNSLKPEDTAVYYCAAEPTLGWYVPRRSVEYEYWGQGTQVTVSS', 0.38);
